# subject.of.test: human apelin receptor (APJ, AGTRL-1, APLNR) (Homo sapiens, UniProt P35414)
# Construct: host or cells: Chinese hamster ovary cells
# Sequence (P35414 whole entry): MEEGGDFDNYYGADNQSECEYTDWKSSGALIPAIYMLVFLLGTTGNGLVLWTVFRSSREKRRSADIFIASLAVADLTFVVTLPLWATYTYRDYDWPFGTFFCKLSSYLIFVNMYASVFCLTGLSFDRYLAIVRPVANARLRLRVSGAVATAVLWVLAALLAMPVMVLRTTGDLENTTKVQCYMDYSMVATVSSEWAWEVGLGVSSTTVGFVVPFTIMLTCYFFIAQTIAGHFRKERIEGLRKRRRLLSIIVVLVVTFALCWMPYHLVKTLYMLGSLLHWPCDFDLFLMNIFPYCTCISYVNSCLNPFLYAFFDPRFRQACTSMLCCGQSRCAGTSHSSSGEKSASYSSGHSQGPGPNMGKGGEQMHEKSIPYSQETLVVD
# protocol.notes: APJ cAMP cell-based assay (forskolin-stimulated CHO cells, enzyme fragment complementation)
# condition.description: CHO, 0.5 h; percentage of the maximal apelin-13 response at 1 nM (control); read-out: APJ cAMP % resp (efficacy)
experimental.readout: Emax (%)

{"molecule": "COc1ccccc1-n1c(SCc2cc(=O)n3cc(C)ccc3n2)nnc1-c1ccc(C)o1 [Example 15]", "experimental.readout": "Emax", "data.value": 52}

P. COc1ccccc1-n1c(SCc2cc(=O)n3cc(Cl)ccc3n2)nnc1-c1cccs1 [Example 50]
Q. COc1ccc(-n2c(SCc3cc(=O)n4cc(C)ccc4n3)nnc2-c2cccs2)cn1 [Example 30]
R. Cc1ccc2nc(CSc3nnc(-c4cccs4)n3-c3ccc(OC(F)(F)F)cc3)cc(=O)n2c1 [Example 25]
Query: Ascending by Emax, please: list the molecules accordingly. Record the ranking as a list of labels in the requested order.
Reply: Q, R, P

a. COc1ccccc1-n1c(SCc2cc(=O)n3cc(C)ccc3n2)nnc1-c1ccc(Br)o1 [Example 10]
b. COc1ccccc1-n1c(SCc2csc(-c3ccc(C)cc3)n2)nnc1-c1cccs1 [Example 36]
Query: Would you let me know which has the greater Emax value, a or b ? Identify your pick by its label.
Reply: a
(a: 150%, b: 83%)

1. COc1ccc(-c2nc(CSc3nnc(-c4cccs4)n3-c3ccccc3OC)co2)cc1 [Example 37]
2. COc1ccccc1-n1c(SCc2cc(=O)n3cc(C)ccc3n2)nnc1-c1ccncc1 [Example 4]
Query: Which of the two gives a bigger number for Emax: 1 or 2 ? Lab log: write the label of the selected item as the result.
Reply: 1
(1: 138%, 2: 80%)

P. COc1ccccc1-n1c(SCc2cc(=O)n3cc(C)ccc3n2)nnc1-c1ccc(C)s1 [Example 11]
Q. COc1ccccc1-n1c(SCc2nc3cc(C)ccc3c(=O)[nH]2)nnc1-c1cccs1 [Example 53]
Query: Which record would sort first by descending Emax, P or Q ? State your choice using its label.
Reply: P

###

# subject.of.test: human apelin receptor (APJ, AGTRL-1, APLNR) (Homo sapiens)
# Construct: host or cells: Chinese hamster ovary cells
# protocol.notes: APJ cAMP cell-based assay (forskolin-stimulated CHO cells, enzyme fragment complementation)
# condition.description: CHO cells expressing human APJ, forskolin-stimulated, 0.5 h incubation; 50% of control (apelin-13, 1 nM) response; read-out: APJ cAMP EC50
experimental.readout: EC50 (µM)

The cases that follow already have their EC50 on record.
{"compound": "COc1ccccc1-n1c(SCc2ccc([N+](=O)[O-])cc2)nnc1-c1cccs1 [Example 72]", "subject.of.test": "human apelin receptor (APJ, AGTRL-1, APLNR) (Homo sapiens)", "experimental.readout": "EC50", "data.value": 0.14}
{"compound": "COc1ccccc1-n1c(SCc2ccc(Cl)cc2)nnc1-c1cccs1 [Example 70]", "subject.of.test": "human apelin receptor (APJ, AGTRL-1, APLNR) (Homo sapiens)", "experimental.readout": "EC50", "data.value": 2.03}
{"compound": "COc1ccccc1-n1c(SCc2cc(=O)n3cc(C)ccc3n2)nnc1-c1ccncc1 [Example 4]", "subject.of.test": "human apelin receptor (APJ, AGTRL-1, APLNR) (Homo sapiens)", "experimental.readout": "EC50", "data.value": 3.09}
{"compound": "COc1ccc(-n2c(SCc3cc(=O)n4cc(C)ccc4n3)nnc2-c2cccs2)cc1 [Example 20]", "subject.of.test": "human apelin receptor (APJ, AGTRL-1, APLNR) (Homo sapiens)", "experimental.readout": "EC50", "data.value": 5}

I. COc1ccccc1-n1c(SCc2coc(-c3ccc(C)cc3)n2)nnc1-c1cccs1 [Example 41]
II. COc1ccccc1-n1c(SCc2nc(=O)c3cc(C#N)ccc3[nH]2)nnc1-c1cccs1 [Example 54]
Query: Returns: the argument ( I or II ) having the larger EC50. Please indicate the selected item by its label.
Reply: I
(I: 2.49 µM, II: 0.0313 µM)

A. COc1ccccc1-n1c(OCc2cc(=O)n3cc(C)ccc3n2)nnc1-c1cccs1 [Example 83]
B. COc1ccccc1-n1c(SCc2ccc3ccccc3n2)nnc1-c1cccs1 [Example 68]
C. Cc1cccc(-n2c(SCc3cc(=O)n4cc(C)ccc4n3)nnc2-c2cccs2)c1 [Example 21]
D. COc1ccccc1-n1c(OCc2csc(-c3ccccc3)n2)nnc1-c1cccs1 [Example 84]
E. COc1ccccc1-n1c(SCc2cc(=O)n3cc(C)ccc3n2)nnc1-c1ccc(C#N)cc1 [Example 13]
Query: Put the items in sequence by EC50, from largest down. Give me the labels in the order the question wants.
Reply: C, E, D, B, A
(C: 2.37 µM, E: 1.42 µM, D: 0.68 µM, B: 0.211 µM, A: 0.045 µM)

P. COc1ccccc1-n1c(SCc2nc(=O)c3cc(C)ccc3[nH]2)nnc1-c1cccs1 [Example 59]
Q. COc1ccccc1-n1c(SCc2cc(=O)n3cc(C)ccc3n2)nnc1-c1ccsc1 [Example 17]
Query: Hi, I'm comparing two records. Which one has the lower EC50, P or Q ? Could you answer with the label of the item you picked?
Reply: P
(P: 0.042 µM, Q: 0.09 µM)

The origin of these recorded values is patent US12319684B2.
